biological target: SARS-CoV-2 Wuhan-Hu-1 RBD (SARS-CoV-2 Wuhan-Hu-1, UniProt P0DTC2); assay: BLI; conditions: both partners purified
property: Kd (nM)
The answer is to be given in nM; state only the numeric part.

Solved entries (count: 3):
# binder, result_number
rows = [
    ("V004 (antibody, V domains shown, IgG; donor BRA13; source: recombinant monoclonal IgG, produced and purified as previously described) VH: QVQLQESGPGLVKPSQTLSLTCTVSGGSISSGSYYWSWIRQPAGKGLEWIGRIYTSGSTNYNPSLKSRVTISVDTSKNQFSLKLSSVTAADTAVYYCARDTTDDYYVIWGQGTLVTVSS VL: DIQMTQSPSTLSASVGDRVTITCRASQSIRSWLAWYQQKPGKAPKLLIYDASSLESGVPSRFSGSGSGTEFTLTISSLQPDDFATYYCQQYNTHFRTFGQGTKVEIK", 3.59),
    ("V062 (antibody, V domains shown, IgG; donor BRA15; source: recombinant monoclonal IgG, produced and purified as previously described) VH: QLQLQESGPGLVKPSETLSLTCTVSSGSISSSSYYWGWIRQPPGKGLEWIGSIYYSGSTYYNPSLKSRVTISVDTSKNQFSLKLSSVTAADTAVYYCARHWRENFAHAFDIWGQGTMVTVSS VL: QSALTQPASVSGSPGQSITISCTGTSSDVGSYDLVSWFQQHPGKAPKLMIYEVTKRPSGVSNRFSGSKSGNTASLTISGLQAEDEADYYCCSYVGSSTYWVFGGGTKLTVL", 2.86),
    ("V064 (antibody, V domains shown, IgG; donor BRA15; source: recombinant monoclonal IgG, produced and purified as previously described) VH: EVQLVESGGGLVQPGGSLRLSCAASGLTVSRNYMRWVRQAPGKGLEWVSLIYSGGSTFYGDSVKGRFTISRDNSKNTLYLQMNSLRAEDTAVYYCARDLVRDGMDVWGQGTTVTVSS VL: EIVMTQSPATLSVSPGERATLSCRASQSVSSNLAWYQQKPGQAPRLLIYGASTRATGIPARFSGSGSGTEFTLTISSLQSEDFAVYYCQQYNNWTFGQGTKVEIK", 2.76),
]

Ask: Note Kd for the binder shown: V013 (antibody, V domains shown, IgG; donor BRA13; source: recombinant monoclonal IgG, produced and purified as previously described) VH: QVQLVESGGGVVQPGRSLRLSCAGSGFIFSSFAMHWVRQAPGKGLEWVAVVSYDGDNKYYADSVKGRFTISRDNSKNTLYLQMDSLRPEDTAVYFCGRDEAALWIQRWYREIDFWGQGTLVTVSS VL: QSVLTQPPSVSGTPGQRVTISCSGSSSNTGRNPVTWYQQFPGSAPKLLISRNNQRPSGVPDRFSGSKSGTSASLAISGLQSEDEADYYCAAWDDNLNGQVFGGGTKVTVL
Reply: 128
